Numbers sourced from PubChem BioAssay AID651742.

Measured cytotoxicity (signal decrease), listed per entry.
# method_description: NIH3T3 cell viability loss – cherry-pick, single point, cytotoxicity control for T. cruzi proliferation inhibitor project, confirmation (AID 651742);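 further: 0% = median of neutral control wells and 100% = median of positive control wells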
# measurement_conditions: NIH/3T3 viability, CellTiter-Glo ATP luminescence, 90 h; at 8.35 µM; hits give high values
The whole screen tested about 5,600 compounds, of which about 780 (14%) were called active. Inconclusive results (about 3%) are left out. A selection follows.

structure_as_smiles: C[C@@H]1CCCCO[C@H](CN(C)S(=O)(=O)c2cccs2)[C@H](C)CN([C@H](C)CO)C(=O)c2cc(NS(=O)(=O)c3ccc(F)cc3)ccc2O1
cytotoxicity (signal decrease) [%]: -5.09

structure_as_smiles: COc1ccc(NC(=O)Nc2ccc3c(c2)C(=O)N([C@H](C)CO)C[C@H](C)[C@H](CN(C)S(=O)(=O)c2ccc(Cl)cc2)OCCCC[C@H](C)O3)cc1
cytotoxicity (signal decrease) [%]: -12.7

structure_as_smiles: C/C=C/c1ccc([C@H]2[C@@H](CNC(C)C)N(c3nc(CC)cs3)[C@H]2CO)cc1
cytotoxicity (signal decrease) [%]: 7.64

structure_as_smiles: CCCNC(=O)N1[C@@H]2c3cccc(=O)n3C[C@H]1[C@H](CO)[C@H]2C(=O)NCC(F)(F)F
cytotoxicity (signal decrease) [%]: 19.4
